Where do these numbers come from? They come from the supplement of paper PMC10065799.

# Test System: Fes (UniProt P07332)
# Sequence (P07332 whole entry, looked up): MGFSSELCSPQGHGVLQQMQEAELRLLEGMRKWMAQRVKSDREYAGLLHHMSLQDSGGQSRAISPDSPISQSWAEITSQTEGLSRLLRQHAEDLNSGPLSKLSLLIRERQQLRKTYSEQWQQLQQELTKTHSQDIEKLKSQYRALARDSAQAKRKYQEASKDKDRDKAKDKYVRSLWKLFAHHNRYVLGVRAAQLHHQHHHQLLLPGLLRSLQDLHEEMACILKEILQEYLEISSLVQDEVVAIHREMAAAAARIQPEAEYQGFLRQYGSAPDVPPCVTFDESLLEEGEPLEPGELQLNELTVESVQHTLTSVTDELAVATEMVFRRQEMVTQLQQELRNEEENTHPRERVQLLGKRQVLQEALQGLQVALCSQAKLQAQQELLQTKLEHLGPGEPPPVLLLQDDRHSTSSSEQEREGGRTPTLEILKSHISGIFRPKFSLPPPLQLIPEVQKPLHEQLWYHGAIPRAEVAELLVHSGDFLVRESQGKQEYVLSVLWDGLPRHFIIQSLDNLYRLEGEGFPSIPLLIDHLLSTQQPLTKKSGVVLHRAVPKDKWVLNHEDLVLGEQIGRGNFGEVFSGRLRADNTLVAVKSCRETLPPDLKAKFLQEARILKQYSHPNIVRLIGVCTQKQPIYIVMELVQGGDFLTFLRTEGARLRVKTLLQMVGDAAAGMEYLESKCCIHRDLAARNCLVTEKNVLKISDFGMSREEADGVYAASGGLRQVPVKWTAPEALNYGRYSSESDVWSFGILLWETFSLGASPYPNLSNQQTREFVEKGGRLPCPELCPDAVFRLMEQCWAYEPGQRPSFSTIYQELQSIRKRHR
# Test Summary: phosphorylation enrichment, bacterial display (enrichment ratio); higher = better substrate or ligand; peptides without Tyr show the background;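 further: 11-residue human phosphosite peptides and single-mutation variants displayed on the E. coli surface, counted by deep sequencing, each peptide's frequency after selection divided by its frequency in the unselected input library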;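 further: frequency after pTyr selection over input frequency; kinase dosed for 20-30% of maximal phosphorylation in three min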
Tag: true if measured phosphorylation enrichment is not below 0.9, false if it is.

Exercise: For this sequence, is measured phosphorylation enrichment 0.9 or higher? SGRRRYTIAAL [TTR_Y125_P122R]
Solution: false

Exercise: For this sequence, is measured phosphorylation enrichment 0.9 or higher? ENELTYFCCKK [CD59_Y86_YF]
Solution: true

Exercise: For this sequence, is measured phosphorylation enrichment 0.9 or higher? QRRLVYYERGA [RYR1_Y245_G248R]
Solution: false

Exercise: For this sequence, is measured phosphorylation enrichment 0.9 or higher? IEPGIYIPEDD [XPNPEP3_Y455]
Solution: true

Exercise: For this sequence, is measured phosphorylation enrichment 0.9 or higher? SLMNQYVNKKF [RAB7A_Y28]
Solution: false

Exercise: For this sequence, is measured phosphorylation enrichment 0.9 or higher? YDGKEYDPVEA [MAPRE2_Y167]
Solution: true

Exercise: For this sequence, is measured phosphorylation enrichment 0.9 or higher? CTTIHYMFMCN [TP53_Y234_N235M_YF]
Solution: true

Exercise: For this sequence, is measured phosphorylation enrichment 0.9 or higher? VPLLEYYWDIF [CDAN1_Y712_R714W]
Solution: true

Exercise: For this sequence, is measured phosphorylation enrichment 0.9 or higher? AIIEEYLHLND [EIF4G1_Y1253]
Solution: true

Exercise: For this sequence, is measured phosphorylation enrichment 0.9 or higher? EQLGEYKFQNA [ALB_Y425]
Solution: false

Exercise: For this sequence, is measured phosphorylation enrichment 0.9 or higher? MANYMYKAGPS [MAML2_Y515]
Solution: false

Exercise: For this sequence, is measured phosphorylation enrichment 0.9 or higher? QEALEYFMKQM [PIK3CA_Y1038]
Solution: true

----------
# Test System: MERTK (UniProt Q12866)
# Sequence (Q12866 whole entry, looked up): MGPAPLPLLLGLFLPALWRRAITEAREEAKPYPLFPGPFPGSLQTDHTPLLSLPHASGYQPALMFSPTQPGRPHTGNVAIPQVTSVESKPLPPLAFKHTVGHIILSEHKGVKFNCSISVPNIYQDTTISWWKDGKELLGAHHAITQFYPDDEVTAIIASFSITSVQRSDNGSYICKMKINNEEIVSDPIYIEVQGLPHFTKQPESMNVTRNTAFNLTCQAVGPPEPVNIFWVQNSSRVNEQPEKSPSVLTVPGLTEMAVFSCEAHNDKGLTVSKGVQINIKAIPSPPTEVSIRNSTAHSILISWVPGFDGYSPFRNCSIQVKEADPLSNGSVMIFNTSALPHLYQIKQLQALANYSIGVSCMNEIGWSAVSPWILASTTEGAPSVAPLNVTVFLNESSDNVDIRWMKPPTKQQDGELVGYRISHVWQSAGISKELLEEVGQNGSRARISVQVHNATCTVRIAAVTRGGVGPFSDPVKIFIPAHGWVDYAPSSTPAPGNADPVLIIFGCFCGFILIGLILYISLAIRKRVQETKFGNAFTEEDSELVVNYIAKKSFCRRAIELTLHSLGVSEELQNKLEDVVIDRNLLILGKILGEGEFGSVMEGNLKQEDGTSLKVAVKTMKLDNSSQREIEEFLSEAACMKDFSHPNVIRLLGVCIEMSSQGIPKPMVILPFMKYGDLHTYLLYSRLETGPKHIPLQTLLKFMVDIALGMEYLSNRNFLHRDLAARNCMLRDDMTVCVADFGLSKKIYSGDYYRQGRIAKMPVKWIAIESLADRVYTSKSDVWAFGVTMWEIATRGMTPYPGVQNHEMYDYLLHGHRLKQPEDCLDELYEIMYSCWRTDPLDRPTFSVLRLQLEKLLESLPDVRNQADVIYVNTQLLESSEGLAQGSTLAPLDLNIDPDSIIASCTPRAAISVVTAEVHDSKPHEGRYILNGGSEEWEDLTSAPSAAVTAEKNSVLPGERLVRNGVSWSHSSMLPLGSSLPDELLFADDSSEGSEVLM
# Test Summary: phosphorylation enrichment, bacterial display (enrichment ratio); higher = better substrate or ligand; peptides without Tyr show the background
Parameter: phosphorylation enrichment
Simply state the number, no unit and no words.

Exercise: Which phosphorylation enrichment is reported for this sequence? ATDLAYFLVRE [ASL_Y375_K380E_YF]
Solution: 0.694

Exercise: Which phosphorylation enrichment is reported for this sequence? EHEALYLEADL [CENPF_Y1920]
Solution: 0.77

Exercise: Which phosphorylation enrichment is reported for this sequence? FRDALYKFIVD [PHEX_Y250_M253I_YF]
Solution: 0.902

Exercise: Which phosphorylation enrichment is reported for this sequence? DEFLEYRRIVG [FAM221A_Y20_YF]
Solution: 0.493

Exercise: Which phosphorylation enrichment is reported for this sequence? ATDLAYFLVCK [ASL_Y375_R379C_YF]
Solution: 0.517

Exercise: Which phosphorylation enrichment is reported for this sequence? KMTGRYEMFAR [UPB1_Y362_YF]
Solution: 0.633

Exercise: Which phosphorylation enrichment is reported for this sequence? GGDAVYTNGTI [RFX2_Y82_A86T]
Solution: 0.391

Exercise: Which phosphorylation enrichment is reported for this sequence? FSQQTYYPVSN [ABCD1_Y180_R182P]
Solution: 7.46

Exercise: Which phosphorylation enrichment is reported for this sequence? EIVFVYVKKRS [DNAI2_Y7_YF]
Solution: 0.296

Exercise: Which phosphorylation enrichment is reported for this sequence? IGDENYGEGSS [ACO2_Y665]
Solution: 0.586

Exercise: Which phosphorylation enrichment is reported for this sequence? LSSEMCVKSYT [F5_Y2149_Y2149C]
Solution: 1.1

Exercise: Which phosphorylation enrichment is reported for this sequence? FLTLHYDAKPQ [ANG_Y38_Q36L]
Solution: 0.301

Exercise: Which phosphorylation enrichment is reported for this sequence? MSPPGYKLVTG [GJA1_Y286]
Solution: 0.397

Exercise: Which phosphorylation enrichment is reported for this sequence? VTQEQYELYCE [CBL_Y368]
Solution: 0.571
